# SUBJECT_OF_TEST: NEK7 (human)
# TEST_PROTOCOL: radiometric filter-binding kinase assay, Kinase HotSpot
# ASSAY_SETUP: compound 0.5 µM; ATP 10 µM
TEST_READOUT: residual activity (%)

>>> print(df.to_string())
                               smiles_string  recorded_number
 0  COc1cc2c(Nc3ccc(Br)cc3F)ncnc2cc1OCC1CCN(C)CC1               99
 1  FC(F)(F)c1ccc(/C=C/c2nc(COc3ccc(CCCCn4ccnn4)cc3)co2)cc1             94.6
 2          O=C(c1ccccc1)c1ccc(N2CCOCC2)cc1O              104
 3      CCc1nc(-c2ccc(OC)cc2)[nH]c1-c1ccncc1             99.8
 4  O=c1c2ccccc2[nH]c(=S)n1CCN1CCC(=C(c2ccc(F)cc2)c2ccc(F)cc2)CC1              100
 5                   Nc1ncnc2c1cnn2-c1ccccc1              106
 6  N#C/C(=C1/Nc2ccccc2S1)c1ccnc(NCCc2cccnc2)n1             88.2
 7  O=c1[nH]c2ccccc2n1C1CCN(Cc2ccc(-c3nc4cc5[nH]cnc5cc4nc3-c3ccccc3)cc2)CC1             99.6
 8  Cn1cc(/C=C2\C(=O)Nc3ccc(S(N)(=O)=O)cc32)c2ccccc21              101
 9   Cc1cc(Nc2nc(-c3ccccc3)nc3ccccc23)n[nH]1             97.7
10  O=S(=O)(NCCNC/C=C/c1ccc(Br)cc1)c1cccc2cnccc12             96.9
11  N#CCCc1ccc2c(c1)-c1[nH]c3ccc([N+](=O)[O-])cc3c1CC(=O)N2             87.4
12  O=C1NC(=O)c2cc(Nc3ccc(F)cc3)c(Nc3ccc(F)cc3)cc21              103
13  c1ccc(-c2cnc(Nc3ccc(OCCN4CCCC4)cc3)s2)cc1              100
14     O=c1cc(N2CCOCC2)oc2c(-c3ccccc3)cccc12             92.1
15       CCOc1cc2ncnc(Nc3cccc(Br)c3)c2cc1OCC             98.6
16  O=c1c(-c2ccc(F)cc2)c(-c2ccncc2)[nH]n1-c1ccc(Cl)cc1             90.1
17          COc1cccc(-c2cc(=O)c3ccccc3o2)c1N             94.7
18  O=C1NC(=O)c2c1c1c3ccccc3[nH]c1c1[nH]c3cc(Br)ccc3c21             96.8
19        CCCCc1c(-c2ccc(O)cc2)[nH]c2nccnc12              111
20  N/C(=N\N=C/c1ccc(-c2cccc([N+](=O)[O-])c2)o1)N[N+](=O)[O-]              102
21  COc1cc2c(N3CCN(C(=O)Nc4ccc(OC(C)C)cc4)CC3)ncnc2cc1OCCCN1CCCCC1             93.4

* * *

Catalogue of residual activity readings, one per entry.
# SUBJECT_OF_TEST: CDK5 CDK5R1 p25 (human) (UniProt Q00535+Q15078)
# Sequence (Q00535 whole entry, looked up): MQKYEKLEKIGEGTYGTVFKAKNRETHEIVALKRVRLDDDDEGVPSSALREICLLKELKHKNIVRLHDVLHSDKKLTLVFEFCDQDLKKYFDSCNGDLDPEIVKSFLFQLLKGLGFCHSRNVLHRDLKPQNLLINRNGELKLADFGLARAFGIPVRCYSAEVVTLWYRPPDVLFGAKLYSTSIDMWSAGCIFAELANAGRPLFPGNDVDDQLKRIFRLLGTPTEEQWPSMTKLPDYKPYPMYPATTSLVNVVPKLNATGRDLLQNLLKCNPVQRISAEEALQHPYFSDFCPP
# Sequence (Q15078 whole entry, looked up): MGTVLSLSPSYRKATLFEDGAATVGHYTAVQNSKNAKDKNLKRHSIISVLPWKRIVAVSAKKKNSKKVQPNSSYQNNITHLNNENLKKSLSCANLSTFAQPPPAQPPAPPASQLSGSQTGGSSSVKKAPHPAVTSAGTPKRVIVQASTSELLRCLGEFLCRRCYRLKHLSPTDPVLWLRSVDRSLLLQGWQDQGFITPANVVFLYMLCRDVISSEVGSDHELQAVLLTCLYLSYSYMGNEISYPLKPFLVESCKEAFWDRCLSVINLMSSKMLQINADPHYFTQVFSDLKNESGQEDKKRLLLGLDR
# TEST_PROTOCOL: radiometric filter-binding kinase assay, Kinase HotSpot
# ASSAY_SETUP: compound 0.5 µM; ATP 10 µM
TEST_READOUT: residual activity (%)

>>> df
                              smiles_string       test_readout  recorded_number
0  CN[C@@H]1C[C@H]2O[C@@](C)([C@@H]1OC)n1c3ccccc3c3c4c(c5c6ccccc6n2c5c31)C(=O)NC4  residual activity             2.78
1     O=c1cc(N2CCOCC2)oc2c(-c3ccccc3)cccc12  residual activity             86.7
2  c1ccc(-c2cnc(Nc3ccc(OCCN4CCCC4)cc3)s2)cc1  residual activity             80.7

Hey, just so you know, these numbers are from the kinase profiling compilation of Christmann-Franck et al. (2016).
